tested on: Canis familiaris; experiment: In vivo percent change in canine heart rate at 30 ug/Kg/min.; format: functional, Canis lupus familiaris

[
  {
    "COMPOUND": "CC(Cc1ccccc1)(NC(=O)[C@@H]1CCCN1C(=O)CCCc1ccc(O)cc1)C(=O)NCCCN.Cl (stereo not given in full)",
    "Change / %": 1.3
  },
  {
    "COMPOUND": "COc1ccc(CC(C)(NC(=O)[C@@H]2CCCN2C(=O)CCCc2ccccc2)C(=O)N[C@@H](CCCN=C(N)N)C(=O)O)cc1OC (stereo not given in full)",
    "Change / %": 1
  },
  {
    "COMPOUND": "N=C(N)NCCC[C@H](NC(=O)[C@@H]1Cc2ccccc2CN1C(=O)CCCc1ccc(O)cc1)C(=O)O",
    "Change / %": 0
  },
  {
    "COMPOUND": "CC(Cc1ccc(O)cc1)(NC(=O)[C@@H]1CCCN1C(=O)CCCc1ccc(O)cc1)C(=O)NCCCN.Cl (stereo not given in full)",
    "Change / %": 4
  },
  {
    "COMPOUND": "CC(Cc1ccccc1)(NC(=O)[C@@H]1CCCN1C(=O)CCCc1ccccc1)C(=O)N1CCC[C@H]1C(=O)O (stereo not given in full)",
    "Change / %": 0
  }
]
